Assay: β-carotene solubility in organic solvents
Format: physicochemical
Conditions: organic solvent or mixture
Readout type: solubility

Exam item: Endpoint output: solubility of "CC1=C(/C=C/C(C)=C/C=C/C(C)=C/C=C/C=C(C)/C=C/C=C(C)/C=C/C2=C(C)CCCC2(C)C)C(C)(C)CCC1" . Value?
Marked response: ≤ 20 mg/mL
